Items are presented alongside their recorded pIC50.
Molecular target: SARS-CoV-2 M^pro (Severe acute respiratory syndrome coronavirus 2, UniProt P0DTD1)
Assay: biochemical
Set-up: The main protease (M^pro) of SARS-CoV-2; made in house
pIC50: −log10 of the molar value. Ends that are not written are not given here.
quantity-measured: pIC50

| substance | quantity-measured | test-value |
| --- | --- | --- |
| KYTFWQYSQFY-NH2 [p12] | pIC50 | 5.27 |
| WFTLKQYWQTN-NH2 [p16] | pIC50 | 5.42 |
| LTINWQKYFNT-NH2 [p15] | pIC50 | 5.27 |
